Reference source: patent US20180362628A1

- tgt: T1, full CSP protein (analyte of Example 12) (Plasmodium falciparum (isolate 3D7), UniProt Q7K740 19-374)
- T1 construct: not shown: C-terminal tags
- experiment description: SPR, IgG1 from supernatant on anti-human IgG surface, CSP as analyte, 25 C, 1:1 fit
Here the recorded kon is given for each entry.
Please reply with the bare figure in M⁻¹ s⁻¹ and do not write the unit itself.

{"binder": "CL-141769 (antibody, V domains shown, human IgG1, HEK (Expi293F) culture supernatant) VH: QVQLVQSGAEVKKPGASVKVSCRASGYTFTNYAMHWVRQAPGQRLEWMGWINAGNGYTKYSQKFQDRFTITRDTSATTAYMELSSLRSEDTAVYYCARDSFYDILTGPVYHYYGMDVWGQGTTVTVSS VL: QSALTQPDSVSGSPGQSITISCTGTSNDVGVYNHVSWYQQHPGKAPKLMIYDVSKRPSGVSNRFSGSKSGNTASLTISGLQAEDESDYYCCSYAGSSTWVFGGGTKLTVL", "kon (M⁻¹ s⁻¹)": 156000}

--- query ---
Bench note: what kon did CL-141776 (antibody, V domains shown, human IgG1, HEK (Expi293F) culture supernatant) VH: QVQLVQSGAEVKNPGASVKVSCKASGFTFTNYAMHWVRQAPGQRLEWMGWINAGNGHTKYSQKFQDRVAITRDTSATTAYMELSSLRSEDTAVYYCSRDGFCSTTTCSDHYGMDVWGQGTTVTVSS VL: QSALTQPASVSGSPGQSITISCTGTSSDVGGYNYVSWYQQHPGKAPKFMIYDVSKRPSGVSNRFSGSKSGNTASLTISGLQAEDEADYYCCSYAGSSTWVFGGGTKLTVL show?
143000
